Each entry below lists one item and its recorded selectivity ratio value.
- measurement notes: Selectivity index, ratio of GI50 for mouse RAW264.7 cells to MIC for Mycobacterium tuberculosis H37Rv ATCC 27294
- Type: toxicity
- applied conditions: read-out: Selectivity Index
Format: numeric value only, no unit, no commentary.

Some solved cases for reference:
>>> quantitative_result("O=C(O)/C=C/c1ccc(O)cc1 [COUMARIC ACID]")
18.7
>>> quantitative_result("O=C(O)/C=C/c1ccccc1O [O-COUMARIC ACID]")
37.4
>>> quantitative_result("COC(=O)/C=C/c1cccc(OCC=C(C)C)c1")
12.2
>>> quantitative_result("COC(=O)/C=C/c1ccc(O)cc1 [METHYL P-HYDROXYCINNAMATE]")
2.72
>>> quantitative_result("COC(=O)/C=C/c1cccc(O)c1")
3.8

Query CC(C)=CCOc1cccc(/C=C/C(=O)O)c1 yields selectivity ratio of 7.53

Query CC(=O)Nc1ccccc1O yields selectivity ratio of 31.8

Query CC(C)=CCOc1ccc(/C=C/C(=O)O)cc1 yields selectivity ratio of 15.6
